system: L1210 murine leukemia cells; test: Activity against L1210 murine leukemia cells (IC50); format: cell-based
pIC50: −log10 of the molar value.
outcome_measure: pIC50

molecule	outcome_measure	reported_result
CC[C@H](C)[C@@H]([C@@H](CC(=O)N1CCC[C@H]1CCC(=O)N[C@@H](CCSC)C(=O)OC)OC)N(C)C(=O)[C@@H](NC(=O)[C@H](C(C)C)N(C)C)C(C)C [22c]	pIC50	5.40
